The measured values listed here are drawn from the supplement of paper PMC10567573.

B1: PTPN9 (parent)
chain: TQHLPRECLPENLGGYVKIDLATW

variants of: B1; assay: protein stability index of a GFP-peptide fusion (GPS, HEK-293T) (PSI 1-6); higher = more stable; details: c terminus: a fixed tail appended;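 also: lentivirally expressed fusions sorted by FACS into six bins by GFP to DsRed ratio, PSI derived from sequencing read proportions per bin multiplied by bin number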
Values of protein stability index greater than or equal to 2 map to T; values below map to F.

Exercise: Is protein stability index at least 2? Consider TQHLPRECLPENLGGYVKIDLKTW [A22K]
Solution: T

Exercise: Now consider TQHLPRECLPENLNGYVKIDLATW [G14N] .
Solution: T

Exercise: Now consider AQHLPRECLPENLGGYVKIDLATW [T1A] .
Solution: T

Exercise: Now consider TQHLPRECLPENLGGYVKIDLATT [W24T] .
Solution: T
